EC50 for assorted compounds
# tgt: 5-HT1A receptor (Homo sapiens)
# Sequence (P08908 whole entry): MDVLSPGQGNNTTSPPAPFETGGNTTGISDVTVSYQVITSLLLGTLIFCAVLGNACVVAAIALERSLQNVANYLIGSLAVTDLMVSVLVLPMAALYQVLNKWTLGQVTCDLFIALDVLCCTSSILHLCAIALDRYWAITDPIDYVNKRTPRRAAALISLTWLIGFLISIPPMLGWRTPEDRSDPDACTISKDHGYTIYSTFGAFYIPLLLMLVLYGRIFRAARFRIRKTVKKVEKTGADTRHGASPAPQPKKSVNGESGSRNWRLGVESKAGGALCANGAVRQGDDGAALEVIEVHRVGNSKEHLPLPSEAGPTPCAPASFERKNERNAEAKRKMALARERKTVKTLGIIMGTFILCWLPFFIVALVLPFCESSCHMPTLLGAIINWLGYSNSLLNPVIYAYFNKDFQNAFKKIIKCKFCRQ
# procedure_details: cAMP accumulation assay, 5-HT1A function
# experimental_context: cells marked EC50 (agonist)
observable: EC50 (µM)

{"compound": "CCN(CCCc1c[nH]c2ccc(Cl)cc12)C1COc2c(F)ccc(C(N)=O)c2C1 (stereo not shown)", "measured": 0.046}
{"compound": "NC(=O)c1ccc(F)c2c1CC(N(CCCCn1ccc3c(F)cccc31)CC1CC1)CO2 (stereo not shown)", "measured": 0.216}
{"compound": "NC(=O)c1cccc2c1CC(N(CCCc1c[nH]c3ccc(F)cc13)C1CCC1)CO2 (single isomer, unassigned; (+)) [Compound 134b]", "measured": 0.0445}
{"compound": "CCN(CCCc1c[nH]c2c(F)cc(F)cc12)C1COc2c(C(N)=O)ccc(F)c2C1 (stereo not shown)", "measured": 0.112}

Source listed as patent US20050032873A1.
